# procedure-summary: Volume of distribution in rat at 10 mg/kg, iv
# Format: ADME, organism-based
# Parameters: dose 10 mg/kg, route intravenous
# test-parameters: in vivo
reported-endpoint: Vd (L/kg)
Report only the number, with the unit L/kg understood.

Request: Entry O=[N+]([O-])c1ccc(C2=NOC(c3ccc(N4CCN(Cc5ccccc5)CC4)cc3)C2)o1 (stereo unspecified) : reported Vd = ?
Response: 2

====

# procedure-summary: Half life in rat at 100 mg/kg, po
# Assay type: ADME, organism-based
# Set-up: dose 100 mg/kg, route oral
# test-parameters: in vivo
reported-endpoint: half-life (h)
State just the number; it will be interpreted in h.

Request: Please report the recorded half-life for O=[N+]([O-])c1ccc(C2=NOC(c3ccc(N4CCN(Cc5ccccc5)CC4)cc3)C2)o1 (stereo unspecified) .
Response: 4.2

====

Reported fraction unbound values for a set of compounds
# procedure-summary: Protein binding in rat
# Assay type: ADME, organism-based
# test-parameters: plasma, read-out: PB (converted)
# output: bare number, no unit

Reference set, count: 3
Request: Quick one: fraction unbound for CCOC(=O)N1CCN(c2ccc(C3CC(c4ccc([N+](=O)[O-])o4)=NO3)cc2)CC1 (centres undefined) ?
Response: 0.01

Request: # lookup: fraction unbound of CC(C)NC(=O)N1CCN(c2ccc(C3CC(c4ccc([N+](=O)[O-])o4)=NO3)cc2)CC1 (centres undefined)
Response: 0.027

Request: Entry O=[N+]([O-])c1ccc(C2=NOC(c3ccc(N4CCN(Cc5ccccc5)CC4)cc3)C2)o1 (centres undefined) : reported fraction unbound = ?
Response: 0.001

More entries:
Request: Find the recorded fraction unbound belonging to O=[N+]([O-])c1ccc(C2=NOC(c3ccc(N4CCCCC4)cc3)C2)o1 (centres undefined) and report it.
Response: 0.012
